Overview of reported pIC50 across a group of compounds:
target: RIPK1 (Mus musculus)
Construct: endogenous in cells
Sequence (Q60855 whole entry): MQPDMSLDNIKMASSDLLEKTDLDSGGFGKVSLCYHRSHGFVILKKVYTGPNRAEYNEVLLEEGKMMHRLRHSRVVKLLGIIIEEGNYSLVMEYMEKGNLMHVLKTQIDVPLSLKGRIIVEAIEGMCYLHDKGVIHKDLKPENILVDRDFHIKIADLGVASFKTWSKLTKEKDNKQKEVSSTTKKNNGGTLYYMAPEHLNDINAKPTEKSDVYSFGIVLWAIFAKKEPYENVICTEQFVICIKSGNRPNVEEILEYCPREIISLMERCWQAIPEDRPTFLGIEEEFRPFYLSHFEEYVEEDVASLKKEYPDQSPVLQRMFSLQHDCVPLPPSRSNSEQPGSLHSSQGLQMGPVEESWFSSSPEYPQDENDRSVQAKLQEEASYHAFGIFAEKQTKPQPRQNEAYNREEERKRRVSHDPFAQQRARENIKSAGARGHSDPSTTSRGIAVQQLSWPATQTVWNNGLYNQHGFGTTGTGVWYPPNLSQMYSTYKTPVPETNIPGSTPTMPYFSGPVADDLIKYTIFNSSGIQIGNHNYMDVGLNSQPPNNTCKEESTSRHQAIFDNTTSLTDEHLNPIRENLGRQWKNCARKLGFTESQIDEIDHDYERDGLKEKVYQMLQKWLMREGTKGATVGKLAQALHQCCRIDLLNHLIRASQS
test details: RIPK1 autophosphorylation (pS166) by Western blot in MEFs stimulated with hTNF + TAK1i + zVAD.fmk
experimental conditions: immortalised MEFs, 30 min pretreatment with zVAD.fmk 50 μM, TAK1i 1 μM and compound, hTNF 20 ng/ml for 2.5 h, read-out: RIPK1 inhibition (IC50 estimated from a Western blot)
pIC50: −log10 of the molar value.

compound: Cc1cccc(CC(=O)N2CCc3c2ccc(-c2cn(C)c4ncnc(N)c24)c3F)n1 [Compound 10, reference compound]
pIC50: 9.00 to 10.00
//
compound: Cn1cc(-c2ccc3c(c2F)CCN3C(=O)Cc2ccc(O)cn2)c2c(N)ncnc21 [Compound 26]
pIC50: ≤ 8.00
//
compound: Cn1cc(-c2ccc3c(c2F)CCN3C(=O)Cc2ccc(F)cn2)c2c(N)ncnc21 [Compound 18]
pIC50: ≤ 8.00
//
compound: Cn1cc(-c2ccc3c(c2F)CCN3C(=O)Cc2ccc(C(C)(C)C)cn2)c2c(N)ncnc21 [Compound 25]
pIC50: ≤ 8.00

====

target: RIPK1 (Mus musculus)
Construct: endogenous in cells
test details: RIPK1 autophosphorylation (pS166) by Western blot in MEFs stimulated with hTNF + TAK1i + zVAD.fmk
experimental conditions: immortalised MEFs, 30 min pretreatment with zVAD.fmk 50 μM, TAK1i 1 μM and compound, hTNF 20 ng/ml for 2.5 h, read-out: RIPK1 inhibition (IC50 estimated from a Western blot)

structure smiles string: Cn1cc(-c2ccc3c(c2F)CCN3C(=O)Cc2ccncc2)c2c(N)ncnc21
IC50: ≥ 0.01 µM

structure smiles string: Cn1cc(-c2ccc3c(c2F)CCN3C(=O)Cc2ccc(F)cc2)c2c(N)ncnc21
IC50: 0.0001 to 0.001 µM

structure smiles string: Cn1cc(-c2ccc3c(c2F)CCN3C(=O)Cc2ccc(Cl)cn2)c2c(N)ncnc21
IC50: 0.001 to 0.01 µM

structure smiles string: Cn1cc(-c2ccc3c(c2F)CCN3C(=O)Cc2ccc(Cc3ccccc3)cn2)c2c(N)ncnc21
IC50: ≥ 0.01 µM

structure smiles string: Cn1cc(-c2ccc3c(c2F)CCN3C(=O)Cc2ccc(Br)cc2)c2c(N)ncnc21
IC50: 0.001 to 0.01 µM

structure smiles string: Cn1cc(-c2ccc3c(c2F)CCN3C(=O)Cc2ccc(Br)cn2)c2c(N)ncnc21
IC50: 0.001 to 0.01 µM

structure smiles string: Cn1cc(-c2ccc3c(c2F)CCN3C(=O)Cc2ccc(Cl)cc2)c2c(N)ncnc21
IC50: 0.0001 to 0.001 µM

structure smiles string: Cc1ccc(CC(=O)N2CCc3c2ccc(-c2cn(C)c4ncnc(N)c24)c3F)nc1
IC50: ≥ 0.01 µM

structure smiles string: Cc1ccc(CC(=O)N2CCc3c2ccc(-c2cn(C)c4ncnc(N)c24)c3F)cc1
IC50: ≥ 0.01 µM

structure smiles string: Cn1cc(-c2ccc3c(c2F)CCN3C(=O)Cc2ccc(-c3ccccc3)cn2)c2c(N)ncnc21
IC50: ≥ 0.01 µM

====

System: immortalized MEFs
test details: RIPK1 kinase-dependent necroptosis (hTNF + zVAD.fmk) in MEFs, Sytox Green
Assay type: cell-based, mouse
experimental conditions: Mus musculus, 24 h, immortalized MEFs, zVAD-fmk 50 μM + hTNF 20 ng/ml, Sytox Green at 24 h; Table 1 series; read-out: IC50 necroptosis
measured endpoint: IC50

molecule: COc1ccc(CC(=O)N2CCc3c2ccc(-c2cn(C)c4ncnc(N)c24)c3F)nc1 [Compound 23]
assay result: 39 nM
--
molecule: Cn1cc(-c2ccc3c(c2F)CCN3C(=O)Cc2ccc(Cc3ccccc3)cn2)c2c(N)ncnc21 [Compound 28]
assay result: 62 nM
--
molecule: Cn1cc(-c2ccc3c(c2F)CCN3C(=O)Cc2ccc(C3CC3)cn2)c2c(N)ncnc21 [Compound 24]
assay result: 33.5 nM
--
molecule: Cn1cc(-c2ccc3c(c2F)CCN3C(=O)Cc2ccc(Br)cc2)c2c(N)ncnc21 [Compound 32]
assay result: 0.3 nM

====

Tested on: immortalized MEFs
test details: RIPK1 kinase-dependent necroptosis (hTNF + zVAD.fmk) in MEFs, Sytox Green
Type: cell-based, mouse
experimental conditions: Mus musculus, 24 h, immortalized MEFs, zVAD-fmk 50 μM + hTNF 20 ng/ml, Sytox Green at 24 h; Table 1 series; read-out: IC50 necroptosis
Here the recorded IC50 is given for each entry.

molecule: Cn1cc(-c2ccc3c(c2F)CCN3C(=O)Cc2ccc(O)cn2)c2c(N)ncnc21 [Compound 26]
unit text: nM
readout relation: =
IC50: 2530

molecule: Cn1cc(-c2ccc3c(c2F)CCN3C(=O)Cc2ccc(F)cc2)c2c(N)ncnc21 [Compound 30]
unit text: nM
readout relation: =
IC50: 0.01

molecule: Cn1cc(-c2ccc3c(c2F)CCN3C(=O)Cc2ccc(C(F)(F)F)cn2)c2c(N)ncnc21 [Compound 22]
unit text: nM
readout relation: =
IC50: 2.9

molecule: Cn1cc(-c2ccc3c(c2F)CCN3C(=O)Cc2ccc(Cl)cn2)c2c(N)ncnc21 [Compound 19]
unit text: nM
readout relation: =
IC50: 2.5

molecule: Cn1cc(-c2ccc3c(c2F)CCN3C(=O)Cc2ccc(-c3ccccc3)cn2)c2c(N)ncnc21 [Compound 29]
unit text: nM
readout relation: >
IC50: 10000

====

# key: entry, value: IC50
Tested on: immortalized MEFs
test details: RIPK1 kinase-dependent necroptosis (hTNF + zVAD.fmk) in MEFs, Sytox Green;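 further: cell death taken as background-corrected Sytox Green fluorescence relative to the maximal signal of cells fully permeabilized with 0.1% Triton X-100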
Type: cell-based, mouse
experimental conditions: Mus musculus, 24 h, immortalized MEFs, zVAD-fmk 50 μM + hTNF 20 ng/ml, Sytox Green at 24 h; Table 1 series; read-out: IC50 necroptosis
measured endpoint: IC50

structure smiles string: Cn1cc(-c2ccc3c(c2F)CCN3C(=O)Cc2ccc(C(C)(C)C)cn2)c2c(N)ncnc21
target: immortalized MEFs
measured endpoint: IC50
assay result: 40 nM
--
structure smiles string: Cn1cc(-c2ccc3c(c2F)CCN3C(=O)Cc2ccc(C(F)(F)F)cc2)c2c(N)ncnc21
target: immortalized MEFs
measured endpoint: IC50
assay result: 1.1 nM
--
structure smiles string: Cc1ccc(CC(=O)N2CCc3c2ccc(-c2cn(C)c4ncnc(N)c24)c3F)nc1
target: immortalized MEFs
measured endpoint: IC50
assay result: 37 nM
--
structure smiles string: Cn1cc(-c2ccc3c(c2F)CCN3C(=O)Cc2ccc(F)cn2)c2c(N)ncnc21
target: immortalized MEFs
measured endpoint: IC50
assay result: 13.5 nM
--
structure smiles string: Cc1ccc(CC(=O)N2CCc3c2ccc(-c2cn(C)c4ncnc(N)c24)c3F)cc1
target: immortalized MEFs
measured endpoint: IC50
assay result: > 10000 nM
--
structure smiles string: Cn1cc(-c2ccc3c(c2F)CCN3C(=O)Cc2ccncc2)c2c(N)ncnc21
target: immortalized MEFs
measured endpoint: IC50
assay result: 3020 nM
--
structure smiles string: Cn1cc(-c2ccc3c(c2F)CCN3C(=O)Cc2ccc(Br)cn2)c2c(N)ncnc21
target: immortalized MEFs
measured endpoint: IC50
assay result: 3.2 nM
--
structure smiles string: Cn1cc(-c2ccc3c(c2F)CCN3C(=O)Cc2ccc(Cl)cc2)c2c(N)ncnc21
target: immortalized MEFs
measured endpoint: IC50
assay result: 0.4 nM

====

Below, each of the molecules is paired with its reported pIC50 value.
target: RIPK1 (Mus musculus)
Construct: endogenous in cells
test details: RIPK1 autophosphorylation (pS166) by Western blot in MEFs stimulated with hTNF + TAK1i + zVAD.fmk
experimental conditions: immortalised MEFs, 30 min pretreatment with zVAD.fmk 50 μM, TAK1i 1 μM and compound, hTNF 20 ng/ml for 2.5 h, read-out: RIPK1 inhibition (IC50 estimated from a Western blot)
pIC50: −log10 of the molar value.

structure smiles string: Cn1cc(-c2ccc3c(c2F)CCN3C(=O)Cc2ccc(C(F)(F)F)cn2)c2c(N)ncnc21
target: RIPK1 (Mus musculus)
pIC50: 8.00 to 9.00
//
structure smiles string: COc1ccc(CC(=O)N2CCc3c2ccc(-c2cn(C)c4ncnc(N)c24)c3F)nc1
target: RIPK1 (Mus musculus)
pIC50: ≤ 8.00
//
structure smiles string: Cn1cc(-c2ccc3c(c2F)CCN3C(=O)Cc2ccc(C3CC3)cn2)c2c(N)ncnc21
target: RIPK1 (Mus musculus)
pIC50: ≤ 8.00
//
structure smiles string: Cn1cc(-c2ccc3c(c2F)CCN3C(=O)Cc2ccc(C(F)(F)F)cc2)c2c(N)ncnc21
target: RIPK1 (Mus musculus)
pIC50: 8.00 to 9.00

====

target: PERK (Mus musculus, UniProt Q9Z2B5)
Construct: Immortalized MEFs were pretreated for 30 min with increasing concentrations of GSK’157 and the indicated compounds and stimulated with tunicamycin; endogenous in cells
Sequence (Q9Z2B5 29-1114): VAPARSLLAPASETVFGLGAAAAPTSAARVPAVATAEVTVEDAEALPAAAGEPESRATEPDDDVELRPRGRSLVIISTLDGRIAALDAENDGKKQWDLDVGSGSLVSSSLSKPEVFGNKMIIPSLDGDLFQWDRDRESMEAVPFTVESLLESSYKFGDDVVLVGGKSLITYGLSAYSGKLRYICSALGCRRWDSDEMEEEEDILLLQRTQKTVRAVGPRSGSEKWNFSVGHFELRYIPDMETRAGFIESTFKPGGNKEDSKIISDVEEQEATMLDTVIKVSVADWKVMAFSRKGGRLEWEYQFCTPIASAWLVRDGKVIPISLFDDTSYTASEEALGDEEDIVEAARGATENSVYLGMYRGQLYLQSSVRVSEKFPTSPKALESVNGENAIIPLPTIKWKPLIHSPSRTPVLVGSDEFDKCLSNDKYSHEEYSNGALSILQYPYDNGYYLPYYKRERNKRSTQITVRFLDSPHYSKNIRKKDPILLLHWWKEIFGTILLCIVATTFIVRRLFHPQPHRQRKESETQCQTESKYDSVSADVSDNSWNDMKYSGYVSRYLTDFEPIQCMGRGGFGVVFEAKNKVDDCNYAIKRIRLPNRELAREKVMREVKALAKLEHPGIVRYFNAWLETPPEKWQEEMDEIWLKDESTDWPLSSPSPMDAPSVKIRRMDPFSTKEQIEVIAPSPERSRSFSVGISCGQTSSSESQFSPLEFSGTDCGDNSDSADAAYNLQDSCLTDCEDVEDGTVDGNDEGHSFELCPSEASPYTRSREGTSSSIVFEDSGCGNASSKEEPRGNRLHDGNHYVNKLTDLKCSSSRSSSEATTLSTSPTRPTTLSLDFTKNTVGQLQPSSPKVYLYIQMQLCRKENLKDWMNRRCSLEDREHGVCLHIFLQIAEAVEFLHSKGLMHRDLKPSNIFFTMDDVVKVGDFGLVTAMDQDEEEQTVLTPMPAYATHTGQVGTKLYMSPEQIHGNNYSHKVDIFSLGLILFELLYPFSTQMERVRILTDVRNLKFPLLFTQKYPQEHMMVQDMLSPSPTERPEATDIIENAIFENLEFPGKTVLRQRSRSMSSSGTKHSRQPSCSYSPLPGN
test details: PERK autophosphorylation by Western blot in tunicamycin-stimulated immortalized MEFs
experimental conditions: immortalized MEFs, 30 min pretreatment, tunicamycin 1 μg/ml for 4 h; PERK autophosphorylation; read-out: PERK inhibition (IC50 estimated from a Western blot)
pIC50: −log10 of the molar value.
Reported pIC50 values are given for each entry in this list.

compound: Cc1ccc(CC(=O)N2CCc3c2ccc(-c2cn(C)c4ncnc(N)c24)c3F)nc1 [Compound 21]
pIC50: 5.30 to 6.00
//
compound: Cn1cc(-c2ccc3c(c2F)CCN3C(=O)Cc2ccc(F)cc2)c2c(N)ncnc21 [Compound 30]
pIC50: 5.30 to 6.00
//
compound: Cc1ccc(CC(=O)N2CCc3c2ccc(-c2cn(C)c4ncnc(N)c24)c3F)cc1 [Compound 33]
pIC50: 5.30 to 6.00
//
compound: Cn1cc(-c2ccc3c(c2F)CCN3C(=O)Cc2ccc(-c3ccccc3)cn2)c2c(N)ncnc21 [Compound 29]
pIC50: < 5.30

Origin of values: paper PMC10119423
